All values here come from patent US11299478B2.

system name: cathepsin K (Homo sapiens, UniProt P43235)
Sequence (P43235 115-329, species assumed): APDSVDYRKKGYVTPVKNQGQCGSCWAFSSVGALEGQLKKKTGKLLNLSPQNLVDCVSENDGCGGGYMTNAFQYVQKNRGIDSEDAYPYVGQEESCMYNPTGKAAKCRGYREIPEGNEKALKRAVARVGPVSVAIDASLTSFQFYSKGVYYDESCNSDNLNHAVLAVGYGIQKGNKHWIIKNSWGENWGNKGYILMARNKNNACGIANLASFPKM
procedure details: Inhibitory activity assay against cathepsin K (enzyme assay)
Type: biochemical
study conditions: Z-Phe-Arg-AMC 10 μM, enzyme 1 nM, pH 5.5, 30 minutes
Classification by IC50 | ranges: L: < 30 nM; M: ≥ 30 nM and < 60 nM; H: ≥ 60 nM

# bin label for CC(=O)N1CCN(c2ccc(-c3ccc(NC(=O)NC4(c5ccnc(C#N)n5)CCCCC4)cc3)cc2)CC1
L

What about Cn1ncc2ccc(-c3cccc(COC(=O)NC4(c5ccnc(C#N)n5)CCCC4)c3)cc21 ?
M

Query N#Cc1nccc(C2(NC(=O)OCc3cccc(Br)c3)CCCC2)n1 next
H

Record: N#Cc1nccc(C2(NC(=O)OCc3cccc(F)c3)CCCC2)n1
M

Okay, and N#Cc1nccc(C2(NC(=O)Nc3ccccc3C(F)(F)F)CCCC2)n1 ?
H

For N#Cc1nccc(C2(NC(=O)OCc3ccc(F)cc3)CCCCC2)n1 then?
L

Then CC(NC(=O)NC1(c2ccnc(C#N)n2)CCCC1)c1ccccc1 (stereo not drawn) ?
M

Same again, this time with N#Cc1nccc(C2(NC(=O)Nc3ccccc3C(F)(F)F)CCCCC2)n1
M

Input N#Cc1nccc(C2(NC(=O)Nc3ccc(I)c(F)c3)CCCCC2)n1
M

###

system name: cathepsin S (Homo sapiens, UniProt P25774)
Sequence (P25774 115-331, species assumed): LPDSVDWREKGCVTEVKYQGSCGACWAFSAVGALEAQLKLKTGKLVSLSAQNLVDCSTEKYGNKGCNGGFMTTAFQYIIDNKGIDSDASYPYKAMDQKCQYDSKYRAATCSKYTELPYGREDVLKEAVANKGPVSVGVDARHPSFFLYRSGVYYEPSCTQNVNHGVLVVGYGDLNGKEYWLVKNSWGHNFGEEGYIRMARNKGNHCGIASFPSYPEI
procedure details: Inhibitory activity assay against cathepsin S (enzyme assay)
Type: biochemical
study conditions: Z-Phe-Arg-AMC 70 μM, enzyme 3 nM, pH 6.5, 45 minutes
assay readout: IC50

Given COCCOCc1ccc(-c2ccc(NC(=O)NC3(c4ccnc(C#N)n4)CCCCC3)cc2)cc1 [Example 157] , state its recorded IC50.
4620 nM

Would you mind doing N#Cc1nccc(C2(NC(=O)Nc3ccc4c(c3)CCC4)CCCC2)n1 [Example 82] as well?
> 10000 nM

Now give it for Cc1cccc(COC(=O)NC2(c3ccnc(C#N)n3)CCCCC2)c1 [Example 13] too.
> 10000 nM

Now try COC(=O)Cc1ccc(-c2ccc(NC(=O)NC3(c4ccnc(C#N)n4)CCCCC3)cc2)cc1 [Example 156] .
> 10000 nM

Now the same for Cn1cc(-c2ccc(NC(=O)NC3(c4ccnc(C#N)n4)CCCCC3)cc2)cn1 [Example 120]
> 10000 nM

###

system name: cathepsin L (Homo sapiens, UniProt P07711)
Sequence (P07711 114-333, species assumed): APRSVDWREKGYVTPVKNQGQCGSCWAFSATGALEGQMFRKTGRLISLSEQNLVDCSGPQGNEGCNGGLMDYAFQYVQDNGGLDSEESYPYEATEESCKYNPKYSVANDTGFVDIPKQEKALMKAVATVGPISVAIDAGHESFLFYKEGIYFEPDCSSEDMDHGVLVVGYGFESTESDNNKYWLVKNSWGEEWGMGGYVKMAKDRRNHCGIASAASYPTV
procedure details: Inhibitory activity assay against cathepsin L (enzyme assay)
Type: biochemical
study conditions: Z-Phe-Arg-AMC 2 μM, enzyme 3 nM, pH 5.5, 30 minutes
assay readout: IC50

Please state recorded IC50 (tested on cathepsin L (Homo sapiens, UniProt P07711)) of CC(C)(C)N1CCN(c2ccc(NC(=O)NC3(c4ccnc(C#N)n4)CCCCC3)cc2)CC1 [Example 143]
> 10000 nM

Would you kindly repeat that for N#Cc1nccc(C2(NC(=O)Nc3ccc(-c4ccc(F)cc4)cc3)CCCCC2)n1 [Example 121] ?
> 10000 nM

What would you report for CS(=O)(=O)c1ccc(-c2ccc(NC(=O)NC3(c4ccnc(C#N)n4)CCCCC3)cc2)cc1C(F)(F)F [Example 171] ?
> 10000 nM

Can you check N#Cc1nccc(C2(NC(=O)Nc3cc(C(F)(F)F)ccc3F)CCCC2)n1 [Example 83] next?
> 10000 nM

What about N#Cc1nccc(C2(NC(=O)Nc3ccccc3)CCCCC2)n1 [Example 86] ?
2460 nM

Next record, please: N#Cc1nccc(C2(NC(=O)Nc3cccc(C(F)(F)F)c3)CCCCC2)n1 [Example 89]
6890 nM

Then this molecule: N#Cc1nccc(C2(NC(=O)Nc3ccc(I)cc3)CCCCC2)n1 [Example 132]
> 10000 nM

Next record, please: N#Cc1nccc(C2(NC(=O)Nc3ccc(-c4cccc(F)c4)cc3)CCCCC2)n1 [Example 123]
> 10000 nM

Now the molecule N#Cc1nccc(C2(NC(=O)Nc3cc(C(F)(F)F)ccc3F)CCCCC2)n1 [Example 97]
> 10000 nM

###

system name: cathepsin L (Homo sapiens)
procedure details: Inhibitory activity assay against cathepsin L (enzyme assay)
Type: biochemical
study conditions: Z-Phe-Arg-AMC 2 μM, enzyme 3 nM, pH 5.5, 30 minutes
Exercise: for every item that follows, state its recorded IC50.

Consider the molecule Cc1ccc(C(F)(F)F)cc1NC(=O)NC1(c2ccnc(C#N)n2)CCCC1 and give its measured IC50.
> 10000 nM

Also check N#Cc1nccc(C2(NC(=O)Nc3ccc(-c4ccc(C(=O)NCC5CCCO5)cc4)cc3)CCCCC2)n1 (stereo not shown)
> 10000 nM

Item: N#Cc1nccc(C2(NC(=O)Nc3ccc(Cl)c(C(F)(F)F)c3)CCCCC2)n1
> 10000 nM

Next record, please: N#Cc1nccc(C2(NC(=O)Nc3ccc(F)c(C(F)(F)F)c3)CCOCC2)n1
> 10000 nM

###

system name: cathepsin L (Homo sapiens)
procedure details: Inhibitory activity assay against cathepsin L (enzyme assay)
Type: biochemical
study conditions: Z-Phe-Arg-AMC 2 μM, enzyme 3 nM, pH 5.5, 30 minutes
Procedure: In order to measure the enzyme activity of cathepsin L, a buffer solution (pH 5.5) consisting of 50 mM MES, 2.5 mM DTT, 2.5 mM EDTA, 0.005% Polysorbate 20, and 10% DMSO was prepared. […] After reacting the mixture of substrate, test material, and enzyme for 30 minutes, the enzyme activity was measured with the EnVision (Perkin Elmer) microplate reader at an absorption wavelength of 340 nm and an emission wavelength of 460 nm. […]
Would you mind telling me the reported IC50 of each entry?

# IC50 lookup, item N#Cc1nccc(C2(NC(=O)OCc3ccc(Br)cc3)CCCC2)n1
> 10000 nM

Try Cc1ccc(COC(=O)NC2(c3ccnc(C#N)n3)CCCCC2)cc1 next.
> 10000 nM

Now give it for N#Cc1nccc(C2(NC(=O)NCc3ccccc3F)CCCC2)n1 too.
9230 nM

Queued: N#Cc1nccc(C2(NC(=O)Nc3ccc(-c4ccc(S(N)(=O)=O)cc4)c(C(F)(F)F)c3)CCCCC2)n1
7530 nM

Ok, now N#Cc1nccc(C2(NC(=O)NCc3ccc(F)cc3)CCCC2)n1
> 10000 nM

# repeat for N#Cc1nccc(C2(NC(=O)Nc3ccc(-c4ccc(C(F)(F)F)nc4)cc3)CCCCC2)n1
> 10000 nM

# iterate: N#Cc1nccc(C2(NC(=O)Nc3ccc(-c4ccc(F)nc4)cc3)CCCCC2)n1
> 10000 nM

Further, for CC(=O)Nc1ccc(-c2ccc(NC(=O)NC3(c4ccnc(C#N)n4)CCCCC3)cc2)cc1 ?
> 10000 nM

Check CC(=O)Nc1ccc(-c2ccc(NC(=O)NC3(c4ccnc(C#N)n4)CCCCC3)cc2F)cc1 too.
> 10000 nM

Another molecule: Cc1cc(C)cc(NC(=O)NC2(c3ccnc(C#N)n3)CCCC2)c1
> 10000 nM

Thanks! And N#Cc1nccc(C2(NC(=O)Nc3cccc(C(F)(F)F)c3)CCCC2)n1 ?
> 10000 nM

Likewise for COc1ccc(-c2ccc(NC(=O)NC3(c4ccnc(C#N)n4)CCCCC3)cc2)cn1 ?
> 10000 nM

# iterate: N#Cc1nccc(C2(NC(=O)Nc3ccc(-c4ccc(C(=O)O)cc4)c(C(F)(F)F)c3)CCCCC2)n1
> 10000 nM

Another molecule to look at: N#Cc1nccc(C2(NC(=O)OCc3cccc(F)c3)CCCCC2)n1
1620 nM

Next record, please: CN(C)C1CCN(c2ccc(NC(=O)NC3(c4ccnc(C#N)n4)CCCCC3)cc2)CC1
> 10000 nM

Here is the next molecule: N#Cc1nccc(C2(NC(=O)Nc3ccccc3O)CCCCC2)n1
3440 nM

N#Cc1nccc(C2(NC(=O)Nc3ccc(Nc4ccccc4)cc3)CCCCC2)n1 , same question.
> 10000 nM

Now consider CC(C)N1CCN(c2ccc(NC(=O)NC3(c4ccnc(C#N)n4)CCCCC3)cc2)CC1 .
> 10000 nM

###

I'd be grateful if you could share measured IC50 for these entries.
system name: UniProt:P43235
procedure details: Inhibitory activity assay against cathepsin K (enzyme assay)
Type: biochemical
study conditions: Z-Phe-Arg-AMC 10 μM, enzyme 1 nM, pH 5.5, 30 minutes
Answer format: numeric, nM implied, no suffix.

Give its IC50 value. Item: N#Cc1nccc(C2(NC(=O)Nc3ccc(C#CCCC(=O)O)cc3)CCCCC2)n1
10.5

Likewise for N#Cc1nccc(C2(NC(=O)Nc3ccc(-c4ccc(C(F)(F)F)nc4)cc3)CCCCC2)n1 ?
25.1

Also check N#Cc1nccc(C2(NC(=O)NCc3ccc(F)cc3)CCCC2)n1
76

Now consider N#Cc1nccc(C2(NC(=O)Nc3ccc(-c4cccc(F)c4)cc3)CCCCC2)n1 .
10.2

What about this molecule? COc1ccccc1NC(=O)NC1(c2ccnc(C#N)n2)CCCC1
3080

Also N#Cc1nccc(C2(NC(=O)Nc3cccc(Br)c3)CCCCC2)n1 , if possible.
11

Then N#Cc1nccc(C2(NC(=O)Nc3ccc(-c4cccnc4)cc3)CCCCC2)n1 ?
13.6

// repeat for N#Cc1nccc(C2(NC(=O)OCc3cccc(C(F)(F)F)c3)CCCCC2)n1 and report
3700

What about N#Cc1nccc(C2(NC(=O)Nc3ccc(Br)cc3)CCCCC2)n1 ?
22.9

One more molecule: Cc1ccc(COC(=O)NC2(c3ccnc(C#N)n3)CCCCC2)cc1
37.2
